Measured target: human mGluR5 (Homo sapiens, UniProt P41594)
Sequence (P41594 21-1180 isoform P41594-2 limits assumed): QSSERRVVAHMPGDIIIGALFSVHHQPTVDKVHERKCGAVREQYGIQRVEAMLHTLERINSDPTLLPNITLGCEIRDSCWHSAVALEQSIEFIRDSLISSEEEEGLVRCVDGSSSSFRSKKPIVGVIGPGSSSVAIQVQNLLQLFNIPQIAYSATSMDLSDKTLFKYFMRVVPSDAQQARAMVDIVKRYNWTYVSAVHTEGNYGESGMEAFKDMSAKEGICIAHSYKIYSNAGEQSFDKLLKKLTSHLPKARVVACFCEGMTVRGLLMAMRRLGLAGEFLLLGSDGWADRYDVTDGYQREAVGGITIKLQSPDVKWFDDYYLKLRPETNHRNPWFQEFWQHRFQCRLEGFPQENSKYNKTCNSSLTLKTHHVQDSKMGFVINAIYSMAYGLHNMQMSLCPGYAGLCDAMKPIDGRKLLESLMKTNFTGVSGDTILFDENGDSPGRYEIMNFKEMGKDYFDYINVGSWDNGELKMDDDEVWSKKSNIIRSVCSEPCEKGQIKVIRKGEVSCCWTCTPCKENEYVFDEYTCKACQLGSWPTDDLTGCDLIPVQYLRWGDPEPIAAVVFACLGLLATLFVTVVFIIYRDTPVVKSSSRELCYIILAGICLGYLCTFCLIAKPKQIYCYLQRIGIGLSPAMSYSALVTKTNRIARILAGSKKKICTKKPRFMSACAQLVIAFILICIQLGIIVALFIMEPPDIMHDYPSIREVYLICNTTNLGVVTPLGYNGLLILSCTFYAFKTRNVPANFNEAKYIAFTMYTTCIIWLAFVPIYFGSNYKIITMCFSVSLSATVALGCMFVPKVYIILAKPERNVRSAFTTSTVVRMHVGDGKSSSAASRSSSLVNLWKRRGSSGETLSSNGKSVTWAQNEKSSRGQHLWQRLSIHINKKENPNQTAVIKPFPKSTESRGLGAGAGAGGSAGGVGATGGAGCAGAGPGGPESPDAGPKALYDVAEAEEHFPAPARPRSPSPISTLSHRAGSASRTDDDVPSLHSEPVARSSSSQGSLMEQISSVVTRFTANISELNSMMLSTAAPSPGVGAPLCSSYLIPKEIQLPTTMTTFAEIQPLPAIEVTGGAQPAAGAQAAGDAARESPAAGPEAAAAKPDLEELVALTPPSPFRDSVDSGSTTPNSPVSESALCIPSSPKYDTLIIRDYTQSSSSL
Method notes: Cell-based functional Ca2+ mobilization assay (FDSS), potentiation of glutamate EC20 response
Condition details: H10H cell-line (HEK, recombinant human mGluR5); glutamate EC20; maximum average response at a single concentration, percent of maximal glutamate response
Reported property: Emax (%)

Check out these entries, answers already filled in.
1) Cn1c(CN2CCn3nc(COc4ccccc4)cc3C2=O)nc2ccccc21: 72
2) O=C1c2cc(COc3ccccc3)nn2CCN1Cc1cccc(Cl)c1: 76
3) COc1ccc(CN2CCn3nc(COc4ccnc(C)c4)cc3C2=O)cc1: 30
4) N#Cc1cccc(CN2CCn3nc(COc4ccccc4)cc3C2=O)c1: 81
5) O=C1c2cc(COc3ccccc3)nn2CCN1Cc1ncccc1Cl: 76
6) O=C1c2cc(COc3ccccc3)nn2CCN1Cc1cc(F)ccc1F: 71
7) CN(C)c1cccc(CN2CCn3nc(COc4ccccc4)cc3C2=O)n1: 69
8) COc1c(Cl)cccc1CN1CCn2nc(COc3ccccc3)cc2C1=O: 65.5

I: O=C1c2cc(COc3cccc(F)c3)nn2CCN1Cc1ccccc1
II: COc1ccc(CN2CCn3nc(COc4cc(C)nc(C)c4)cc3C2=O)cc1
III: COc1ccc(CN2CCn3nc(COc4cccc(C)n4)cc3C2=O)cc1
Sort by Emax, descending. Would you mind listing the labels in the order asked for?
I, III, II
